# System: High Density cholesterol (Chl Large) plaque particles
# TEST SUMMARY: Mass spectroscopy proteomics, semi-quantitative binding affinity of serum proteins (plaqueproteome, Table 2)
# Design: species or system human
# CONDITION CONTEXT: higher number = stronger affinity
Reported Semi-quantitative analysis of proteins binding to different plaque particles: Chl Large values for a set of molecules
Just the number, please.

These recorded examples may help you get a feel for the data.
# MOLECULE, EXPERIMENTAL VALUE
measured = [
    ("Alpha-1-acid glycoprotein 2 (protein) QIPLCANLVPVPITNATLDRITGKWFYIASAFRNEEYNKSVQEIQATFFYFTPNKTEDTIFLREYQTRQNQCFYNSSYLNVQRENGTVSRYEGGREHVAHLLFLRDTKTLMFGSYLDDEKNWGLSFYADKPETTKEQLGEFYEALDCLCIPRSDVMYTDWKKDKCEPLEKQHEKERKQEEGES", 5),
    ("Apolipoprotein F (protein) SLPTEDCENEKEQAVHNVVQLLPGVGTFYNLGTALYYATQNCLGKARERGRDGAIDLGYDLLMTMAGMSGGPMGLAISAALKPALRSGVQQLIQYYQDQKDANISQPETTKEGLRAISDVSDLEETTTLASFISEVVSSAPYWGWAIIKSYDLDPGAGSLEI", 0),
    ("Apolipoprotein A-IV (protein) EVSADQVATVMWDYFSQLSNNAKEAVEHLQKSELTQQLNALFQDKLGEVNTYAGDLQKKLVPFATELHERLAKDSEKLKEEIGKELEELRARLLPHANEVSQKIGDNLRELQQRLEPYADQLRTQVSTQAEQLRRQLTPYAQRMERVLRENADSLQASLRPHADELKAKIDQNVEELKGRLTPYADEFKVKIDQTVEELRRSLAPYAQDTQEKLNHQLEGLTFQMKKNAEELKARISASAEELRQRLAPLAEDVRGNLRGNTEGLQKSLAELGGHLDQQVEEFRRRVEPYGENFNKALVQQMEQLRQKLGPHAGDVEGHLSFLEKDLRDKVNSFFSTFKEKESQDKTLSLPELEQQQEQQQEQQQEQVQMLAPLES", 8),
    ("Tetranectin (protein) EPPTQKPKKIVNAKKDVVNTKMFEELKSRLDTLAQEVALLKEQQALQTVCLKGTKVHMKCFLAFTQTKTFHEASEDCISRGGTLGTPQTGSENDALYEYLRQSVGNEAEIWLGLNDMAAEGTWVDMTGARIAYKNWETEITAQPDGGKTENCAVLSGAANGKWFDKRCRDQLPYICQFGIV", 0),
]

INPUT: What value of Semi-quantitative analysis of proteins binding to different plaque particles: Chl Large has been reported for the following molecule? Ig heavy chain V-I region HG3 (protein) QVQLVQSGAEVKKPGASVKVSCKASGYTFTSYYMHWVRQAPGQGLEWMGIINPSGGSTSYAQKFQGRVTMTRDTSTSTVYMELSSLRSEDTAVYYCAR
OUTPUT: 1
